The entries below come with measured MIC values attached.
Test system: MSSE ATCC 12228
Test: MIC, agar dilution, MSSE ATCC 12228
Assay type: cell-based, S. epidermidis
Settings: Staphylococcus epidermidis, ATCC12228; MSSE ATCC 12228; read-out: MIC
Respond numerically; units are µg/mL and should not be typed.

Answered examples (4):
{"columns": ["COMPOUND", "UNITS", "RESULT_NUMBER"],
 "data": [
  ["CCCCc1cc2c3ccc(OC)c(O)c3c[n+]3ccc4cc5c(c1c4c23)OCO5 [15c]", "µg/mL", 8],
  ["COc1ccc2c(c[n+]3ccc4cc5c(c6c(Cc7ccc([N+](=O)[O-])cc7)cc2c3c46)OCO5)c1O [13r]", "µg/mL", 4],
  ["COc1ccc2c(c[n+]3ccc4cc5c(c6c(Cc7ccc(F)cc7F)cc2c3c46)OCO5)c1O [13c]", "µg/mL", 8],
  ["COc1ccc2c(c[n+]3ccc4cc5c(c6c(Cc7ccc(OC(F)(F)F)cc7)cc2c3c46)OCO5)c1O [13l]", "µg/mL", 32]
]}

Prompt: Requested field: MIC. Item: COc1ccc2c(c[n+]3ccc4cc5c(c6c(Cc7ccccc7)cc2c3c46)OCO5)c1O [13a]
Response: 16

###

The entries below come with measured log10 MIC values attached.
Test system: MSSE ATCC 12228
Experiment: MIC, agar dilution, MSSE ATCC 12228
Type: cell-based, S. epidermidis
Conditions: Staphylococcus epidermidis, ATCC12228; MSSE ATCC 12228; read-out: MIC
Note the log scale: values are log10 of MIC expressed in µg/mL.

{"columns": ["COMPOUND", "log10 MIC"],
 "data": [
  ["COc1ccc2c(c[n+]3ccc4cc5c(c6c(Cc7ccc(Cl)cc7)cc2c3c46)OCO5)c1O [13e]", 0.90],
  ["COc1ccc2c(c[n+]3ccc4cc5c(c6c(Cc7cccc(C)c7)cc2c3c46)OCO5)c1O [13h]", 0.60],
  ["COc1ccc2c(c[n+]3ccc4cc5c(c6c(Cc7cccc([N+](=O)[O-])c7)cc2c3c46)OCO5)c1O [13q]", 1.81],
  ["COc1ccc2c(c[n+]3ccc4cc5c(c6c(Cc7ccccc7[N+](=O)[O-])cc2c3c46)OCO5)c1O [13p]", 0.90],
  ["CCCc1cc2c3ccc(OC)c(O)c3c[n+]3ccc4cc5c(c1c4c23)OCO5 [15b]", 0.30]
]}

Prompt: Requested field: log10 MIC. Item: COc1ccc2c(c[n+]3c4c2ccc2c(O)c(O)cc(c24)CC3)c1O
Response: 0.90

Prompt: Requested field: log10 MIC. Item: COc1ccc2c(c[n+]3ccc4cc5c(c6c(Cc7cccc(C#N)c7)cc2c3c46)OCO5)c1O [13n]
Response: 1.20

Prompt: Requested field: log10 MIC. Item: COc1ccc2c(c[n+]3ccc4cc5c(c6c(Cc7cc(C)cc(C)c7)cc2c3c46)OCO5)c1O [13j]
Response: 1.51

Prompt: Requested field: log10 MIC. Item: COc1ccc2c(c[n+]3ccc4cc5c(c6c(Cc7ccc(C(C)(C)C)cc7)cc2c3c46)OCO5)c1O [13k]
Response: 1.20

###

Tested on: MRSA ATCC-B AA-1708
Experiment: MIC, agar dilution, MRSA ATCC-BAA-1708 (mupA positive)
Type: cell-based
Settings: Staphylococcus aureus; MRSA ATCC-BAA-1708, mupA positive (mupirocin resistance); read-out: MIC
The entries below come with measured MIC values attached.
Respond numerically; units are µg/mL and should not be typed.

Prompt: Requested field: MIC. Item: CCCCc1cc2c3ccc(OC)c(O)c3c[n+]3ccc4cc5c(c1c4c23)OCO5 [15c]
Response: 8

Prompt: Requested field: MIC. Item: CCCc1cc2c3ccc(OC)c(O)c3c[n+]3ccc4cc5c(c1c4c23)OCO5 [15b]
Response: 2

Prompt: Requested field: MIC. Item: COc1ccc2c(c[n+]3ccc4cc5c(c6c(Cc7ccccc7)cc2c3c46)OCO5)c1O [13a]
Response: 8

###

System: MRSA 13-23
Assay: MIC, agar dilution, MRSA 13-23
Type: cell-based
Settings: Staphylococcus aureus; MRSA 13-23; read-out: MIC
QUANTITY: MIC (µg/mL)
Respond numerically; units are µg/mL and should not be typed.

Answered examples (3):
{"columns": ["COMPOUND", "RESULT_NUMBER"],
 "data": [
  ["COc1ccc2c(c[n+]3ccc4cc5c(c6c(Cc7ccc([N+](=O)[O-])cc7)cc2c3c46)OCO5)c1O [13r]", 8],
  ["COc1ccc2c(c[n+]3ccc4cc5c(c6c(Cc7ccc(C(C)(C)C)cc7)cc2c3c46)OCO5)c1O [13k]", 32],
  ["COc1ccc2c(c[n+]3ccc4cc5c(c6c(Cc7ccc(OC(F)(F)F)cc7)cc2c3c46)OCO5)c1O [13l]", 32]
]}

Turning now to a further compound:
Prompt: Requested field: MIC. Item: C[C@H]1COc2c(N3CCN(C)CC3)c(F)cc3c(=O)c(C(=O)O)cn1c23 [Lev, levofloxacin, reference compound]
Response: 64

###

System: MRSA 13-23
Assay: MIC, agar dilution, MRSA 13-23
Format: cell-based
Conditions: Staphylococcus aureus; MRSA 13-23; read-out: MIC
QUANTITY: MIC (µg/mL)
Respond numerically; units are µg/mL and should not be typed.

Answered examples (2):
{"columns": ["COMPOUND", "TEST_SYSTEM", "MIC, µg/mL"],
 "data": [
  ["COc1ccc2c(c[n+]3ccc4cc5c(c6c(Cc7ccccc7[N+](=O)[O-])cc2c3c46)OCO5)c1O [13p]", "MRSA 13-23", 8],
  ["COc1ccc2c(c[n+]3ccc4cc5c(c6c(Cc7ccc(F)cc7F)cc2c3c46)OCO5)c1O [13c]", "MRSA 13-23", 8]
]}

Turning now to a further compound:
Prompt: Which measured MIC belongs to COc1ccc2c(c[n+]3ccc4cc5c(c6c(Cc7cccc(C)c7)cc2c3c46)OCO5)c1O [13h] , tested on MRSA 13-23?
Response: 8

###

Test system: drug-susceptible strains: MSSA, MSSE, S. saprophyticus, S. hominis
Assay: MIC across the panel of drug-susceptible Gram-positive strains
Type: cell-based
Conditions: 18 h; drug-susceptible Gram-positive strains of Table 1; read-out: MICs (range over strains)
Source text: SAR study for antibacterial activity against drug-susceptible Gram-positive bacteria was initially carried out, taking Lev and compound 1 as reference drugs. […] Bacteria strains used in this study were from the ATCC collection and clinical isolates in Chinese hospitals. The influence of the methylenedioxy ring was explored first, and compounds 6 and 10 were created and tested.
The entries below come with measured MIC values attached.

Prompt: Requested field: MIC. Item: COc1ccc2c(c[n+]3ccc4cc5c(c6c(Cc7ccccc7)cc2c3c46)OCO5)c1O [13a]
Response: 8 to 16 µg/mL

Prompt: Requested field: MIC. Item: COc1ccc2c(c[n+]3ccc4cc5c(c6c(Cc7ccc(Cl)cc7)cc2c3c46)OCO5)c1O [13e]
Response: 2 to 8 µg/mL

Prompt: Requested field: MIC. Item: COc1ccc2c(c[n+]3ccc4cc5c(c6c(Cc7cccc(C)c7)cc2c3c46)OCO5)c1O [13h]
Response: 2 to 16 µg/mL

Prompt: Requested field: MIC. Item: COc1ccc2c(c[n+]3ccc4cc5c(c6c(Cc7ccccc7[N+](=O)[O-])cc2c3c46)OCO5)c1O [13p]
Response: 4 to 16 µg/mL

###

The entries below come with measured MIC values attached.
Test system: VISA ATCC 700699
Assay: MIC, agar dilution, VISA ATCC 700699
Assay type: cell-based
Settings: Staphylococcus aureus; VISA ATCC 700699; read-out: MIC
Respond numerically; units are µg/mL and should not be typed.

Answered examples (5):
{"columns": ["COMPOUND", "MIC [µg/mL]"],
 "data": [
  ["COc1ccc2c(c[n+]3ccc4cc5c(c6c(Cc7ccc(F)cc7F)cc2c3c46)OCO5)c1O [13c]", 8],
  ["COc1ccc2c(c[n+]3ccc4cc5c(c6c(Cc7ccccc7)cc2c3c46)OCO5)c1O [13a]", 8],
  ["COc1ccc2c(c[n+]3ccc4cc5c(c6c(Cc7ccccc7[N+](=O)[O-])cc2c3c46)OCO5)c1O [13p]", 4],
  ["COc1ccc2c(c[n+]3c4c2ccc2c(O)c(O)cc(c24)CC3)c1O", 32],
  ["C[C@H]1COc2c(N3CCN(C)CC3)c(F)cc3c(=O)c(C(=O)O)cn1c23 [Lev, levofloxacin, reference compound]", 8]
]}

Prompt: Requested field: MIC. Item: COc1ccc2c(c[n+]3ccc4cc5c(c6c(Cc7cccc(C)c7)cc2c3c46)OCO5)c1O [13h]
Response: 4

Prompt: Requested field: MIC. Item: CCCCc1cc2c3ccc(OC)c(O)c3c[n+]3ccc4cc5c(c1c4c23)OCO5 [15c]
Response: 4
